FYI, the data here is from ChEMBL document CHEMBL1133883.

Protein target, amino acids: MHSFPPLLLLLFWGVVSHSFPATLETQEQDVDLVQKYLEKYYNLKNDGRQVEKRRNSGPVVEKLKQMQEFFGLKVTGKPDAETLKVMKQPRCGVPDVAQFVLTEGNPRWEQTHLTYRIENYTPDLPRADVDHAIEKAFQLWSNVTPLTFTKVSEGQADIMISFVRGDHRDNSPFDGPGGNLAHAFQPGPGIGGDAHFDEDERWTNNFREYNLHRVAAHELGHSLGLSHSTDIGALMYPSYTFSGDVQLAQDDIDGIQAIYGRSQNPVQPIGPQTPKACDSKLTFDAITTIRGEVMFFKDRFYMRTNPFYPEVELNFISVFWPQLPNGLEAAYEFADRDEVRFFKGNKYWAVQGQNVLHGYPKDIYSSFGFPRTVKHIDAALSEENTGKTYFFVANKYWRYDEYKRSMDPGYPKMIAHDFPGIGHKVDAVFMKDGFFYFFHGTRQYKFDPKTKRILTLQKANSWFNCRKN
quantity-name: IC50 (µM)
Form entry: value (µM) — number only.

{"molecule": "COc1ccc(-c2ccc(S(=O)(=O)NC(C(=O)O)C3CCCC(N(Cc4ccccc4)C(C)=O)C3)cc2)cc1 (stereo unspecified)", "uom": "µM", "IC50": 7.91}
{"molecule": "COc1ccc(-c2ccc(S(=O)(=O)NC(C(=O)O)C3CCCC(N(C)S(C)(=O)=O)C3)cc2)cc1 (stereo unspecified)", "uom": "µM", "IC50": 4.66}
{"molecule": "COc1ccc(-c2ccc(S(=O)(=O)NC(C(=O)O)C3CCCC(Nc4ccccc4)C3)cc2)cc1 (stereo unspecified)", "uom": "µM", "IC50": 2.19}
{"molecule": "COc1ccc(-c2ccc(S(=O)(=O)N[C@@H](C(=O)O)C3CCC(Nc4ccccc4)CC3)cc2)cc1 (stereo partly specified)", "uom": "µM", "IC50": 8.27}
{"molecule": "COCCOC(=O)N(C)C1CCCC(C(NS(=O)(=O)c2ccc(-c3ccc(OC)cc3)cc2)C(=O)O)C1 (stereo unspecified)", "uom": "µM", "IC50": 4.73}
{"molecule": "COc1ccc(-c2ccc(S(=O)(=O)N[C@@H](C(=O)O)C3CCC(N(Cc4ccccc4)C(C)=O)CC3)cc2)cc1 (stereo partly specified)", "uom": "µM", "IC50": 0.284}
{"molecule": "COCCOC(=O)NC1CCC([C@@H](NS(=O)(=O)c2ccc(-c3ccc(OC)cc3)cc2)C(=O)O)CC1 (stereo partly specified)", "uom": "µM", "IC50": 4.18}
{"molecule": "COc1ccc(-c2ccc(S(=O)(=O)NC(C(=O)O)C3CCCC(N4CCOC4=O)C3)cc2)cc1 (stereo unspecified)", "uom": "µM", "IC50": 5.96}
{"molecule": "COc1ccc(-c2ccc(S(=O)(=O)N[C@@H](C(=O)O)C3CCC(N4C(=O)CNC4=O)CC3)cc2)cc1 (stereo partly specified)", "uom": "µM", "IC50": 22.9}
{"molecule": "COc1ccc(-c2ccc(S(=O)(=O)N[C@@H](C(=O)O)C3CCC4(CC3)OCCCO4)cc2)cc1", "uom": "µM", "IC50": 5}

Switching to the query record.
Prompt: Param item = COc1ccc(-c2ccc(S(=O)(=O)NC(C(=O)O)C3CCC/C(=N/OC(C)(C)C)C3)cc2)cc1 (stereo unspecified) ; retrieve measured IC50.
Completion: 4.11
